src = patent US4160845A

# Tested on: Rhizoctonia solani
# METHOD_DESCRIPTION: Mycelial inhibition test, Rhizoctonia solani
# Type: cell-based
# MEASUREMENT_CONDITIONS: paper strips on potato dextrose agar, 25° C., 24 hours
Consider the following compounds; for each one, report its Mycelia Inhibition, micrograms/cm for 99% control, R.

Observed Mycelia Inhibition, micrograms/cm for 99% control, R on Rhizoctonia solani for `CC(C)NS(=O)(=O)C(Cl)=C(Cl)Cl` , please.
> 1.7 micrograms/cm

For `Cc1ccc(N(SC(Cl)(Cl)Cl)S(=O)(=O)C(Cl)=C(Cl)Cl)cc1` then?
> 1.7 micrograms/cm

Same read-out for `O=S(=O)(C(Cl)=C(Cl)Cl)N(SC(Cl)(Cl)Cl)c1ccccc1` ?
> 1.7 micrograms/cm

Next entry: `CC(C)N(SC(Cl)(Cl)Cl)S(=O)(=O)C(Cl)=C(Cl)Cl`
0.19 micrograms/cm

Another: `Cc1cccc(C)c1N(SC(Cl)(Cl)Cl)S(=O)(=O)C(Cl)=C(Cl)Cl`
0.33 micrograms/cm

// repeat for `Cc1ccc(NS(=O)(=O)C(Cl)=C(Cl)Cl)cc1` and report
> 1.7 micrograms/cm
